# System: MS2 coat protein
# method: apparent KD of MS2 coat protein; higher = weaker reporter binding
# details: Eterna round: R107; input ligand: tryptophan 2.4 mM
reported-metric: apparent KD of MS2 coat protein (nM)
Report only the number, with the unit nM understood.

sequence_string="AGAAUAACACAUGAGGAUCACCCAUGUGAUACCAGCUAGGAAACUAGCCCUUGGCAGCACAUAAUCCUCAUGAAUGUGCUGAAUA [(M1)-(M2)-(T1)-(T2)-(M)'-(T)'_Design3_2/19/17]" readout_number=59.7
sequence_string=GGGUACAUCGCGGCCGCCACUGGUGUAAAUACAUGAGGAUCACCCAUGUCGAUGGAGACAUCGGGUAGGACCGGGUGAUGUACCG readout_number=24.3
sequence_string=UGUAUGGACUGAAGGAGCGGAUGAUAUCAUGAGGAUCACCCAUGGAAUAAGGCGAAAGCCAUCCAGGUAGGUCGCAGUCCAUACU readout_number=82.4

IN: Indicate the recorded apparent KD of MS2 coat protein value for this sequence: UGAGUUCGCUGAUGGGCUAAGUCAGGUGAUACCAGCCACUCCCGCGGCCCUUGGCAGCACAUGAGGAUCACCCAUGUAGAACUUG [Vexetela]
OUT: 20.2

IN: Indicate the recorded apparent KD of MS2 coat protein value for this sequence: CGGGUUGGACCAGGAAAUGGUCUGACGCGCCGAGGACCGGUACGGCCGCCACUCGCGGGUACAUGAGGAUCACCCAUGUCGGUGG [#1 Same State - Tryptophan A Attempt #12 (HarryS)]
OUT: 93

IN: Indicate the recorded apparent KD of MS2 coat protein value for this sequence: GCGAUACAUGAGGAUCACCCAUGUGCAGAUACCAGAGGUGCAUGCCUCCCUUGGCAGCUGCGACGCUCUGGCAUCUUGUGGGAUG [Same State Theophylline A GF20]
OUT: 56.9

IN: Indicate the recorded apparent KD of MS2 coat protein value for this sequence: AAAAGAGGUGGAAGGAGCGGGAGACAUGAGGAUCACCCAUGUGAUGUUACGAAAGGUUCAGCCCAGGUAGGUCGCCAUGUCGAAA [zczzmullin]
OUT: 34.7

IN: Indicate the recorded apparent KD of MS2 coat protein value for this sequence: UACAUAUGCCGAAGGAGCGCGAGAAGCAAAGCUUCAUUCCUCACAUGAGGAUCACCCAUGUCGCAGGUAGGUCGCGGCAUAUGUU [#15 Exclusion - Arginine B]
OUT: 24

IN: Indicate the recorded apparent KD of MS2 coat protein value for this sequence: ACGGAUCGGAAACGAUCCGCGGCUAGGGUGCGAGGACCGGUACGGCCGCCACUCGGGUAACAUGAGGAUCACCCAUGUCUGAUUU [ETA NP+V+V2 #14]
OUT: 587

IN: Indicate the recorded apparent KD of MS2 coat protein value for this sequence: GCACUACAUGAGGAUCACCCAUGUGCAGAUACCAGAGGUGUAUGCCUCCCUUGGCAGCUGAGUAGGUCUGGAGGGCUAUUGGUUU [Same State Theophylline A GF14]
OUT: 18.2

IN: Indicate the recorded apparent KD of MS2 coat protein value for this sequence: GAACAUAAGGAUAGUAUAAUGACUACAGAAGGAGCGUCAGGAAGGACAGGUAGGUCGCUGGAAGACAUGAGGAUCACCCAUGUUU [Arg A SS t2]
OUT: 19.4

IN: Indicate the recorded apparent KD of MS2 coat protein value for this sequence: GUAUACAUGAGGAUCACCCAUGUACCAGAAGGAGCGCUGGAAACAGCAGGUAGGUCGCUGGUAGGUCCUCUAUCUAGACGUUCUA [EAA NP+V+V2 #5]
OUT: 79

Numbers sourced from the supplement of paper PMC9170038.
